Molecular target: Recombinant human Cbl-b (aa 36-427) (Homo sapiens)
Sequence (Q13191 36-427): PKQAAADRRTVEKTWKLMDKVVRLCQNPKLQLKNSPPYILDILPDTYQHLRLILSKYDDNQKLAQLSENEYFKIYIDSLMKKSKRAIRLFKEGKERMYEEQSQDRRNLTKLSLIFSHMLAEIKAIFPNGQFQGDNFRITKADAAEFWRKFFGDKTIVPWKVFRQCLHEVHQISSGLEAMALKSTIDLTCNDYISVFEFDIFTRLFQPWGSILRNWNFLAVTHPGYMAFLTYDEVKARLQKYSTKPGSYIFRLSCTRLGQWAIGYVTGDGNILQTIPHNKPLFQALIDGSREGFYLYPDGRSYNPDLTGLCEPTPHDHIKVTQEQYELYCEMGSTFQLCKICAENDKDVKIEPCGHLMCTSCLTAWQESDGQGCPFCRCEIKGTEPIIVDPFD
Experiment: Cbl-b Biochemical Assay (TR-FRET)
Conditions: read-out: TR-FRET hCbl-b IC50
pIC50: −log10 of the molar value.
quantity.name: pIC50

Query: Lookup: pIC50 / Recombinant human Cbl-b (aa 36-427) (Homo sapiens) / Cn1cnnc1-c1cc(F)ccc1-c1cccc(-c2nc3cc(C(=O)O)cc(C(F)(F)F)c3o2)c1
Reply: 4.30 to 5.00

Query: Lookup: pIC50 / Recombinant human Cbl-b (aa 36-427) (Homo sapiens) / Cn1cnnc1-c1cc(F)ccc1-c1cccc(-c2nc3cc(CN4CCCC[C@@H]4CO)cc(C(F)(F)F)c3o2)c1
Reply: > 6.70

Query: Lookup: pIC50 / Recombinant human Cbl-b (aa 36-427) (Homo sapiens) / COCCNCc1cc(C(F)(F)F)c2[nH]c(-c3cc(-c4ccc(F)cc4-c4nncn4C)cc(C4CC4)n3)nc2c1
Reply: > 6.70

Query: Lookup: pIC50 / Recombinant human Cbl-b (aa 36-427) (Homo sapiens) / CCNc1cc(-c2ccccc2-c2nncn2C)cc(-c2nc3cc(CN4CCC5(CC5)C4)cc(C(F)(F)F)c3[nH]2)n1
Reply: 6.00 to 6.70

Query: Lookup: pIC50 / Recombinant human Cbl-b (aa 36-427) (Homo sapiens) / Cn1cnnc1-c1cc(F)ccc1-c1cccc(-c2nc3cc(CO)cc(C(F)F)c3o2)c1
Reply: 6.00 to 6.70

Query: Lookup: pIC50 / Recombinant human Cbl-b (aa 36-427) (Homo sapiens) / CN(Cc1cc(C(F)(F)F)c2oc(-c3cccc(-c4ccc(F)cc4-c4nncn4C)c3)nc2c1)CC1CCC1
Reply: > 6.70

Query: Lookup: pIC50 / Recombinant human Cbl-b (aa 36-427) (Homo sapiens) / Cn1cnnc1-c1cc(C#N)ccc1-c1cccc(-c2nc3cccc(C(F)(F)F)c3[nH]2)c1
Reply: 4.30 to 5.00

Query: Lookup: pIC50 / Recombinant human Cbl-b (aa 36-427) (Homo sapiens) / COCCNCc1cc(C(F)(F)F)c2oc(-c3cc(-c4ccc(F)cc4-c4nncn4C)cc(C4CC4)n3)nc2c1
Reply: > 6.70

Query: Lookup: pIC50 / Recombinant human Cbl-b (aa 36-427) (Homo sapiens) / Cn1cnnc1-c1cc(F)ccc1-c1cc(-c2nc3cc(CNCC4(O)CCC4)cc(C(F)(F)F)c3o2)nc(C2CC2)c1
Reply: > 6.70

Query: Lookup: pIC50 / Recombinant human Cbl-b (aa 36-427) (Homo sapiens) / Cn1cnnc1-c1cc(Cl)ccc1-c1cccc(-c2nc3cc(CN[C@@H]4CCC[C@@H]4O)ccc3o2)c1
Reply: > 6.70

Query: Lookup: pIC50 / Recombinant human Cbl-b (aa 36-427) (Homo sapiens) / C[C@H]1CCCN(Cc2cc(C(F)(F)F)c3[nH]c(-c4cc(-c5ccc(F)cc5-c5nncn5C)cc(C5CC5)n4)nc3c2)C1
Reply: > 6.70

Query: Lookup: pIC50 / Recombinant human Cbl-b (aa 36-427) (Homo sapiens) / Cn1cnnc1-c1cc(F)ccc1-c1cccc(-c2nc3cc(CN[C@@H]4CCC[C@@H]4O)cc(C(F)F)c3o2)c1
Reply: > 6.70

Query: Lookup: pIC50 / Recombinant human Cbl-b (aa 36-427) (Homo sapiens) / Cn1cnnc1-c1ccccc1-c1cccc(-c2nc3cc(CN(C(=O)OC(C)(C)C)[C@@H]4CCC[C@H]4O)cc(C(F)(F)F)c3o2)c1
Reply: 6.00 to 6.70

Query: Lookup: pIC50 / Recombinant human Cbl-b (aa 36-427) (Homo sapiens) / COc1cc(CNC[C@@H]2CCCO2)cc2nc(-c3cccc(-c4ccc(F)cc4-c4nncn4C)c3)oc12
Reply: > 6.70

Query: Lookup: pIC50 / Recombinant human Cbl-b (aa 36-427) (Homo sapiens) / Cn1cnnc1CC1(c2cccc(-c3nc4cc(CN5CC[C@H](O)C5)cc(C(F)(F)F)c4[nH]3)c2)COC1
Reply: 6.00 to 6.70

Query: Lookup: pIC50 / Recombinant human Cbl-b (aa 36-427) (Homo sapiens) / Cn1cnnc1-c1cc(F)ccc1-c1cccc(-c2nc3cc(CNCC(C)(C)C#N)cc(C(F)(F)F)c3o2)c1
Reply: > 6.70

Query: Lookup: pIC50 / Recombinant human Cbl-b (aa 36-427) (Homo sapiens) / Cn1cnnc1-c1cc(F)ccc1-c1cc(-c2nc3cc(CN)cc(F)c3o2)nc(C2CC2)c1
Reply: > 6.70

Query: Lookup: pIC50 / Recombinant human Cbl-b (aa 36-427) (Homo sapiens) / CNCc1cc2nc(-c3cc(-c4ccc(F)cc4-c4nncn4C)cc(C4CC4)n3)oc2c(F)c1F
Reply: > 6.70

Query: Lookup: pIC50 / Recombinant human Cbl-b (aa 36-427) (Homo sapiens) / Cn1cnnc1-c1cc(F)ccc1-c1cccc(-c2nc3cc(CNCC(C)(C)O)cc(F)c3o2)c1
Reply: > 6.70

Query: Lookup: pIC50 / Recombinant human Cbl-b (aa 36-427) (Homo sapiens) / Cn1cnnc1-c1cc(F)ccc1-c1cc(-c2nc3cc(CNCC4(F)CCC4)cc(F)c3o2)nc(C2CC2)c1
Reply: > 6.70

Query: Lookup: pIC50 / Recombinant human Cbl-b (aa 36-427) (Homo sapiens) / C[C@H]1CCCN(C(=O)c2cc(C(F)(F)F)c3oc(-c4cccc(-c5ccccc5-c5nncn5C)c4)nc3c2)C1
Reply: 4.30 to 5.00

Query: Lookup: pIC50 / Recombinant human Cbl-b (aa 36-427) (Homo sapiens) / Cn1cnnc1-c1cc(Cl)ccc1-c1cc(-c2nc3cc(CNCC4(O)CCC4)cc(F)c3o2)nc(C2CC2)c1
Reply: > 6.70

Query: Lookup: pIC50 / Recombinant human Cbl-b (aa 36-427) (Homo sapiens) / Cn1cnnc1-c1cc(F)ccc1-c1cc(-c2nc3cc(CNCC4(O)CCC4)ccc3o2)nc(C2CC2)c1
Reply: > 6.70

Query: Lookup: pIC50 / Recombinant human Cbl-b (aa 36-427) (Homo sapiens) / Cn1cnnc1-c1ccccc1-c1cccc(-c2cc(C(F)(F)F)c[nH]c2=O)c1
Reply: 4.30 to 5.00

Query: Lookup: pIC50 / Recombinant human Cbl-b (aa 36-427) (Homo sapiens) / COc1cc(CNCC2CCCC2)cc2nc(-c3cccc(-c4ccc(F)cc4-c4nncn4C)c3)oc12
Reply: > 6.70

Query: Lookup: pIC50 / Recombinant human Cbl-b (aa 36-427) (Homo sapiens) / COc1cc(CN[C@@H]2CCC[C@@H]2O)cn2nc(-c3cccc(-c4ccc(F)cc4-c4nncn4C)c3)nc12
Reply: > 6.70

Query: Lookup: pIC50 / Recombinant human Cbl-b (aa 36-427) (Homo sapiens) / CO[C@@H](C)CNCc1cc(C)c2oc(-c3cc(-c4ccc(F)cc4-c4nncn4C)cc(C4CC4)n3)nc2c1
Reply: > 6.70

Query: Lookup: pIC50 / Recombinant human Cbl-b (aa 36-427) (Homo sapiens) / Cc1c(F)c(CNCC(C)(C)O)cc2nc(-c3cccc(-c4ccc(F)cc4-c4nncn4C)c3)oc12
Reply: > 6.70

Query: Lookup: pIC50 / Recombinant human Cbl-b (aa 36-427) (Homo sapiens) / CC(=O)NCc1cc(C(F)(F)F)c2oc(-c3cccc(-c4ccc(F)cc4-c4nncn4C)c3)nc2c1
Reply: 5.00 to 6.00

Query: Lookup: pIC50 / Recombinant human Cbl-b (aa 36-427) (Homo sapiens) / Cn1cnnc1CC1(c2cccc(-c3nc4cc(C(=O)N5CC[C@@H](O)C5)cc(C(F)(F)F)c4[nH]3)c2)COC1
Reply: 4.30 to 5.00

###

System: Jurkat (clone E6-1) cells with NFAT luciferase reporter
Assay: Jurkat reporter assay (NFAT Luciferase)
Assay type: cell-based
Settings: Homo sapiens, Jurkat, 6 h, read-out: Jurkat NFAT EC50 (μM)
Kindly state EC50 for each of the entries shown.

Query: What value of EC50 has been reported for the following compound? Cn1cnnc1-c1cc(F)ccc1-c1cccc(-c2nc3cc(CN[C@@H]4CCC[C@@H]4O)cc(C#N)c3o2)c1 [HH-3]
Reply: < 0.2 µM

Query: What value of EC50 has been reported for the following compound? C[C@H]1CCCN(Cc2cc(C(F)(F)F)c3oc(-c4cc(-c5ccccc5-c5nncn5C)cc(C5CC5)n4)nc3c2)C1 [AAP-7]
Reply: 0.2 to 1 µM

Query: What value of EC50 has been reported for the following compound? Cn1cnnc1-c1cc(F)ccc1-c1cc(-c2nc3cc(CN)cc(F)c3o2)nc(C2CC2)c1 [AHM-3]
Reply: 1 to 10 µM

Query: What value of EC50 has been reported for the following compound? CN(C)Cc1cc2nc(-c3cc(-c4ccc(F)cc4-c4nncn4C)cc(C4CC4)n3)oc2c(F)c1F [AHH-3]
Reply: 1 to 10 µM

Query: What value of EC50 has been reported for the following compound? Cn1cnnc1-c1cc(F)ccc1-c1cccc(-c2nc3cc(CN[C@@H]4CCC[C@@H]4O)cc(Cl)c3o2)c1 [HG-7]
Reply: < 0.2 µM
